Tested on: Escherichia coli
TEST_SUMMARY: Concentration required for 90 percent inhibition of [14C]- pen-G binding to Escherichia coli DCO PBP1a 90 KDa

MOLECULE	LIMIT_SIGN	Concentration [µg/mL]
CC1(C)S[C@@H]2[C@H](NC(=O)[C@@H](CCCCN)c3ccccc3)C(=O)N2[C@H]1C(=O)O	=	10
CC(=O)NCCCC[C@@H](C(=O)N[C@@H]1C(=O)N2[C@@H]1SC(C)(C)[C@@H]2C(=O)O)c1ccccc1	>	100
CC1(C)S[C@@H]2[C@H](NC(=O)[C@H](CCCCN)c3ccccc3)C(=O)N2[C@H]1C(=O)O	=	30
CC(=O)NCCCC[C@H](C(=O)N[C@@H]1C(=O)N2[C@@H]1SC(C)(C)[C@@H]2C(=O)O)c1ccccc1	=	30
CC1(C)S[C@@H]2[C@H](NC(=O)[C@H](N)c3ccccc3)C(=O)N2[C@H]1C(=O)O [AMPICILLIN]	=	2
CC1(C)S[C@@H]2[C@H](NC(=O)Cc3ccccc3)C(=O)N2[C@H]1C(=O)O [PENICILLIN G]	>	100
